Entries and their measured Percent Effect follow.
Test system: Trypanosoma cruzi
Experiment: Trypanosoma cruzi phosphomannomutase and mannose-1-phosphate guanylyltransferase assay
Assay type: functional
Design: scale not given: direction of the effect not stated beside the values
Conditions: 10 µM
Just the number in %, nothing appended.

Worked examples, 4 compounds total:
COMPOUND | SYSTEM_UNDER_TEST | Percent Effect, %
c1cnc(N2CCOC3(CCN(CC4CCCCC4)CC3)C2)nc1 | Trypanosoma cruzi | -5.12
Cc1oncc1C(=O)N1CCC2(CCN(Cc3ccccn3)C2=O)C1 (stereo not drawn) | Trypanosoma cruzi | -2.78
COc1ccc(NC(=O)C(c2cccc(F)c2)N2CCOCC2)cc1 (stereo not drawn) | Trypanosoma cruzi | -5.75
O=C(Cc1ccsc1)NCC1OCCc2cn(CC3CC3)nc21 (stereo not drawn) | Trypanosoma cruzi | -3.06

So what does the record say about Percent Effect for CN(Cc1ncc(-c2ccccc2)o1)CC1CCCN1c1cccnn1 (stereo not drawn) ? 7.74

So what does the record say about Percent Effect for Cc1noc([C@H]2C[C@@H]3CCN(CC4CC4)C[C@H]3O2)n1 ? -1.48

So what does the record say about Percent Effect for Cc1cc(C)n(C2CN(Cc3noc(-c4ccccc4)n3)C2)n1 ? -6.39

So what does the record say about Percent Effect for CN(CC(=O)N1CCN(c2ccccc2F)CC1)c1cnccn1 ? -0.0929

So what does the record say about Percent Effect for Cc1nc(Cn2nc(C3CCNCC3)n(Cc3ccccc3)c2=O)no1 ? -4.25

----------
Biological target: Tyrosyl-tRNA synthetase, putative (Trypanosoma cruzi (strain CL Brener)) (UniProt Q4DSP6)
Sequence (whole entry): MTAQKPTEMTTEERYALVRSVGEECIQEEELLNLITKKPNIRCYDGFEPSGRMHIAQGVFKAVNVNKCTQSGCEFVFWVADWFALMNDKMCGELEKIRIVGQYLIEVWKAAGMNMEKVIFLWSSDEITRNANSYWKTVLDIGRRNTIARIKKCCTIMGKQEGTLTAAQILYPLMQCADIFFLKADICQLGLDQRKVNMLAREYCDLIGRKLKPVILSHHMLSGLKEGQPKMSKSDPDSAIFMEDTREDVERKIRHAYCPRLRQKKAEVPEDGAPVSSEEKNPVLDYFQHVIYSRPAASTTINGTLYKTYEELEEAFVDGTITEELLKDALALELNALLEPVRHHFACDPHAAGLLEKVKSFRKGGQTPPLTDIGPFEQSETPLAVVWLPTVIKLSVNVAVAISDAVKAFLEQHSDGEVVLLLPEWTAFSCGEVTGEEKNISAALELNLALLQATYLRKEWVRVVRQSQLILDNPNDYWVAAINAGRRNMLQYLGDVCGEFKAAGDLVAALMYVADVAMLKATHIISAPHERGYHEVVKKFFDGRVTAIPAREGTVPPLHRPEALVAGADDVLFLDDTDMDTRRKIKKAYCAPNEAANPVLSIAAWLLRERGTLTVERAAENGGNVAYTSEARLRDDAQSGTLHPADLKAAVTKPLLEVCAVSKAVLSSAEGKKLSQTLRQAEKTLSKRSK
Assay: Trypanosoma cruzi tyrosyl tRNA synthetase (TcYRS) _High Tyrosine SOP; further: in the data most compounds retested in dose-response had high values
Type: functional
Parameters: scale not given: direction of the effect not stated beside the values
Details: 30 µM
Labelling field: enter YES if recorded Percent Effect is less than 8%. Enter NO if it equals or exceeds that cut-off.

Look over these answered cases.
COMPOUND | CATEGORY
Cc1nc(C)n(CC2CCCN2CCc2cccs2)n1 (stereo unspecified) | NO
COC(=O)c1sccc1S(=O)(=O)NCC1(O)CCOc2ccccc21 (stereo unspecified) | YES
CNc1nc2c(c(C(=O)N3CCCC3)n1)CN(Cc1nccn1C)CC2 | YES
O=C(Cc1ccsc1)NCC1OCCc2cn(CC3CC3)nc21 (stereo unspecified) | NO
CCCC(=O)NCc1cc(Br)c(OC)c(OC)c1 | YES
O=C(Nc1nc2c(s1)CN(S(=O)(=O)C1CC1)CC2)c1c(F)cccc1F | YES

Hello, is Percent Effect of the following compound strictly smaller than 8%? O=C(c1ccc2c(c1)OCO2)N1CCCC(n2cccn2)C1 (stereo unspecified) NO

Hello, is Percent Effect of the following compound strictly smaller than 8%? CC(C)c1nccn1CCCNC(=O)c1ccc(-c2cncnc2)nc1 YES

Hello, is Percent Effect of the following compound strictly smaller than 8%? CN(C)C[C@H]1OC[C@@H]2CCN(C(=O)c3ccco3)C[C@@H]21 YES

Hello, is Percent Effect of the following compound strictly smaller than 8%? CC(C)Cc1cc(NC(=O)c2ccc(=O)[nH]n2)n(C)n1 NO

Hello, is Percent Effect of the following compound strictly smaller than 8%? CCc1nc(C)c(C(=O)NCCNc2ncccn2)s1 NO

Hello, is Percent Effect of the following compound strictly smaller than 8%? CCN(Cc1ccc2c(c1)OCO2)C(=O)NC(C)Cn1cccn1 (stereo unspecified) YES

Hello, is Percent Effect of the following compound strictly smaller than 8%? NC(=O)C1CCN(Cc2cccc(NC(=O)c3ccsc3)c2)CC1 YES

Hello, is Percent Effect of the following compound strictly smaller than 8%? O=C(NCC1CC1)C1CN(C(=O)c2cccnc2)CC12CCOCC2 (stereo unspecified) YES

Hello, is Percent Effect of the following compound strictly smaller than 8%? CCCc1nc(NCCCO)c2c(n1)c(C)nn2CC NO
